Molecular target: rat GPCR135 (rat, UniProt Q5Y987 29-469)
Sequence (Q5Y987 entry or part of it): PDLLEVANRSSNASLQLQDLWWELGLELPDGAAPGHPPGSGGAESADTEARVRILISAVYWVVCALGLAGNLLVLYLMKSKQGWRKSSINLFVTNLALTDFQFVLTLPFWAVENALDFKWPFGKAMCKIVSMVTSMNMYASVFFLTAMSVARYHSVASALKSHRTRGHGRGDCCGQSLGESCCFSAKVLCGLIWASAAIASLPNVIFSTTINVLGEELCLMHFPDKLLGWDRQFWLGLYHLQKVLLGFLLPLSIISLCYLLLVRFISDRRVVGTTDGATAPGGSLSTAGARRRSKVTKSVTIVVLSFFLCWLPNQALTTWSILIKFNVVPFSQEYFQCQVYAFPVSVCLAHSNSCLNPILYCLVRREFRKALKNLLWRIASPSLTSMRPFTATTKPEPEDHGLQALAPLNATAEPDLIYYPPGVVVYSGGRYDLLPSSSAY
Assay: radioligand competition, 125I-R3/I5 tracer, COS-7 cells transiently expressing recombinant rat GPCR135
Endpoint: IC50 (nM)
I only need the number, in nM, no unit after it.

Entry under review: R3(BΔ23-27)R/I5 (N-terminal pyro-Glu ("<E"), Chimeric two-chain peptide; also called R3(Δ23-27)R/I5; R3(ΔB23-27)R/I5) chain 1: RAAPYGVRLCGREFIRAVIFTCR chain 2: EDLQTLCCTDGCSMTDLSALC . Reported IC50?
0.25
